- Test system: HEK293
- Assay name: Cytotoxic Profiling of Annotated Libraries Using Quantitative High-Throughput Screening (AID 1296008); note: nearly all actives have a fitted effect of over 60% in size
- Setup conditions: Five cell lines viability, CellTiter-Glo ATP luminescence, 48-72 h
- Experimental: Cell-based phenotypic screening is a commonly used approach to discover biological pathways, novel drug targets, chemical probes and high-quality hit-to-lead molecules. […] A pintool (Kalypsys) was used to transfer 23 nL of compound solution to the 1536-well assay plates. […] Plates were left at room temperature for 10 min before imaging the ATP-coupled luminescence using a ViewLux microplate imager (PerkinElmer, Waltham, MA).
Inconclusive results are not listed. The source made the active and inactive calls. Calls come from the whole dose curve; as a rule, active = well fitted inhibition curve with a large enough effect; inconclusive = small, poorly fitted or top-dose-only effect; inactive = flat fitted curve, though single readings scatter.
Outcome codes: active, inactive

Molecule	Tested on	Assigned label
CN=C(NC#N)Nc1ccc(C2=NNC(=O)CC2C)cc1 (stereo unspecified)	HEK293	inactive
CC(C)(C(=O)c1cccnc1)c1cccnc1	HEK293	inactive
OC[C@H]1O[C@@H](n2cnc3c(=S)nc[nH]c32)[C@H](O)[C@@H]1O	HEK293	active
CC(=O)OCC(=O)[C@@]12N=C(C)O[C@@H]1C[C@H]1[C@@H]3CCC4=CC(=O)C=C[C@]4(C)[C@H]3[C@@H](O)C[C@@]12C	HEK293	inactive
CCOc1ccc(Cc2nccc3cc(OCC)c(OCC)cc23)cc1OCC	HEK293	active
O=c1c(-c2ccccc2)c1-c1ccccc1	HEK293	active
CCCCCCCCCCCCCCCC[N+](C)(C)CC	HEK293	active
CCCCC(CC)CN=C(N)NC(N)=NCCCCCCN=C(N)NC(N)=NCC(CC)CCCC (stereo unspecified)	HEK293	active
COc1ccc(CCN2CCC(Nc3nc4ccccc4n3Cc3ccc(F)cc3)CC2)cc1	HEK293	active
CC(C)(C)NC(=O)[C@@H]1CN(Cc2cccnc2)CCN1C[C@@H](O)C[C@@H](Cc1ccccc1)C(=O)N[C@H]1c2ccccc2C[C@H]1O	HEK293	inactive
Cc1cc2c(cc1CC(=O)c1sccc1S(=O)(=O)Nc1onc(C)c1Cl)OCO2	HEK293	inactive
C=CCc1ccc(O)c(OC)c1	HEK293	inactive
CC(=O)O[C@]1(C(C)=O)CC[C@H]2[C@@H]3C[C@H](C)C4=CC(=O)CC[C@]4(C)[C@H]3CC[C@@]21C	HEK293	active
O=c1[nH]c(=O)n([C@H]2CCCO2)cc1F	HEK293	inactive
N[C@H](Cc1c[nH]c2ccccc12)C(=O)O	HEK293	inactive
Cc1c(C(C)C)c(=O)n(-c2ccccc2)n1C	HEK293	inactive
COc1cccc2c1C(=O)c1c(O)c3c(c(O)c1C2=O)C[C@@](O)(C(=O)CO)C[C@@H]3O[C@H]1C[C@H](N)[C@H](O)[C@H](C)O1	HEK293	active
CCOC(=O)COc1ccc2c(C)c(CCN(CC)CC)c(=O)oc2c1Cl	HEK293	inactive
CC1(C)O[C@@H]2[C@@H](CO[C@@]3(COS(N)(=O)=O)OC(C)(C)O[C@@H]23)O1	HEK293	inactive
O=c1ccc2ccccc2o1	HEK293	inactive
COc1cccc2c1C(=O)c1c(O)c3c(c(O)c1C2=O)C[C@@](O)(C(C)=O)C[C@@H]3O[C@H]1C[C@H](N)[C@H](O)[C@H](C)O1	HEK293	active

###

- System: DIV14
- Assay name: qHTS profiling for inhibitors of Plasmodium falciparum proliferation (AID 504749); note: nearly all actives have a fitted effect of over 60% in size
- Setup conditions: P. falciparum in erythrocytes, SYBR Green DNA, 72 h; series mostly up to 28.7 µM
Results filed as inconclusive are left out. Calls of active or inactive are those of the source. Calls come from the whole dose curve; as a rule, active = well fitted inhibition curve with a large enough effect; inconclusive = small, poorly fitted or top-dose-only effect; inactive = flat fitted curve, though single readings scatter.
Outcome codes: true for active, false for inactive

Molecule	Tested on	Assigned label
OC(CCN1CCCCC1)(c1ccccc1)c1ccccc1	DIV14	true
NC(CO)(CO)CO	DIV14	false
COc1ccc(CN2CCN(C(c3ccc(F)cc3)c3ccc(F)cc3)CC2)c(OC)c1OC	DIV14	true
C=CCc1ccc(O)c(OC)c1	DIV14	false
CN1CCC(=C2c3ccccc3Sc3ccccc32)CC1	DIV14	true
c1ccc(CNCCNCc2ccccc2)cc1	DIV14	true
CCN1CCCC1=O	DIV14	false
C[C@H]1C[C@H]2[C@@H]3CCC4=CC(=O)C=C[C@]4(C)[C@@]3(Cl)[C@@H](O)C[C@]2(C)[C@@]1(O)C(=O)CO	DIV14	false
Cc1c(C(N)=O)cc([N+](=O)[O-])cc1[N+](=O)[O-]	DIV14	false
CN1C(CCl)Nc2cc(Cl)c(S(N)(=O)=O)cc2S1(=O)=O (configuration not stated)	DIV14	false
Nc1ccc(C(=O)O)cc1	DIV14	false
Cc1cc(N)c2cc(NC(=O)Nc3ccc4nc(C)cc(N)c4c3)ccc2n1	DIV14	true
